- System: P388 leukemia ip, CD2F1 mice, survival T/C
- experiment: NCI In Vivo Anticancer Drug Screen. Data for tumor model P388 Leukemia (intraperitoneal) in CD2F1 (CDF1) mice
- assay context: endpoint: median survival time; dose: 200.0 mg/kg/injection; schedule: Q01DX009 (ip); vehicle: Klucel (hydroxypropylcellulose) (HPC); higher = longer survival
Toxic doses and inconclusive results are not listed. Peptide text beside a SMILES is read from it. * marks the point of attachment. Cbz = O=C(OCc1ccccc1)*; Bn = c1ccc(C*)cc1; NHNH2 = NN*
Reported values of T/C for individual entries

Below, 5 compounds whose answers are already recorded.
NNC(=O)C(Cc1ccc(O)cc1)NC(=O)C(CSCc1ccccc1)NC(=O)OCc1ccccc1 (stereo unspecified) (Cbz-Cys(Bn)-Tyr-NHNH2; configuration not given here) :: 89 % of control
Cc1cc(-c2ccc(N3C(=O)CC4(CCCC4)C3=O)c(C)c2)ccc1N1C(=O)CC2(CCCC2)C1=O :: 96 % of control
CCN(CC)C(=S)Oc1cc(C)nc(SCC(=O)c2ccc(Cl)cc2)n1 :: 103 % of control
Cc1cc(OC(N)=S)cc(C)c1Cl :: 101 % of control
C1CCNCC1.COc1ccccc1C(=O)[CH-]C(=O)C(F)(F)F.COc1ccccc1C(=O)[CH-]C(=O)C(F)(F)F.COc1ccccc1C(=O)[CH-]C(=O)C(F)(F)F.COc1ccccc1C(=O)[CH-]C(=O)C(F)(F)F.[Eu+3] :: 91 % of control

Fill in the blank: the reported T/C of CC(=NCCN=C(C)c1ccccc1O)c1ccccc1O is ____.
115 % of control

Fill in the blank: the reported T/C of O=[N+]([O-])c1ccc(/C=N/N2CCNC2=S)o1 is ____.
100 % of control

Fill in the blank: the reported T/C of C/C=C/C(=O)Nc1ncc([N+](=O)[O-])s1 is ____.
113 % of control

Fill in the blank: the reported T/C of CC12CC3CC(C)(C1)CC(C(Cl)C(=O)NC(C)(C)C)(C3)C2 (stereo unspecified) is ____.
93 % of control

Fill in the blank: the reported T/C of CC(=O)OC(C(=O)C=[N+]=[N-])C(OC(C)=O)C(OC(C)=O)C(=O)C=[N+]=[N-] (stereo unspecified) is ____.
108 % of control

Fill in the blank: the reported T/C of c1ccc2[nH]c(-c3nc4ccccc4s3)cc2c1 is ____.
98 % of control
